Target: UniProt:A0A024AXB9
Test: Functional biochemical assay to identify treatments for viral infectious disease that targets Zika NS2B-NS3 protease. Utilizing a direct enzyme activity measurement method, reading the fluorescence intensity is used to characterize the relative potency of inhibitors as IC50.
Set-up: species or system PRVABC59
pIC50: −log10 of the molar value.
Give pIC50 for every item shown.

Report value only: pIC50, UniProt:A0A024AXB9, c1ccc(N2CCN(Cc3c[nH]c4ccccc34)CC2)nc1
< 4.00

Report value only: pIC50, UniProt:A0A024AXB9, CCS(=O)(=O)N[C@@H](C(=O)Nc1cccc(CN)c1)c1ccc(OCc2ccccc2)cc1
< 4.00

Report value only: pIC50, UniProt:A0A024AXB9, O=C(Cc1cccc2[nH]ncc12)Nc1ccc2c(c1)CNC2
< 4.60

Report value only: pIC50, UniProt:A0A024AXB9, CCn1cc(C(=O)NC)nc(N2CC[C@@H](CO)C2)c1=O
< 4.00

Report value only: pIC50, UniProt:A0A024AXB9, O=C1Cc2cc(C(=O)Nc3ccc4c(c3)CNC4)c(Cl)cc2N1
< 4.60

Report value only: pIC50, UniProt:A0A024AXB9, O=C(Nc1cc(-c2cccnc2)ccn1)c1csc(C2CC2)n1
< 4.60

Report value only: pIC50, UniProt:A0A024AXB9, NC1CN(c2ccc(NS(=O)(=O)c3ccc(Oc4ccccc4Cl)cc3)cn2)C1
< 4.00

Report value only: pIC50, UniProt:A0A024AXB9, COc1cc(NC(=O)OCc2ccccc2)cc(C(=O)Nc2cccc(CN)c2)c1
4.10

Report value only: pIC50, UniProt:A0A024AXB9, NCc1cccc(NC(=O)C2CCNCC2)c1
< 4.00

Report value only: pIC50, UniProt:A0A024AXB9, CC(C)CC(=O)N1CCC([C@H](NC(=O)OCc2ccccc2)C(=O)Nc2cccc(CN)c2)CC1
< 4.00

Report value only: pIC50, UniProt:A0A024AXB9, CC(C)c1noc2nc(C3CC3)cc(C(=O)Nc3cccc(CN)c3)c12
< 4.00

Report value only: pIC50, UniProt:A0A024AXB9, C[C@H]1CC2(CN1C(=O)Nc1ccc3c(c1)CNC3)CC(F)(F)C2
< 4.60

Report value only: pIC50, UniProt:A0A024AXB9, CC(=O)N(c1ccc2c(c1)CNC2)[C@H](C(=O)NCC(F)F)c1cc(Cl)cc(C2CC2)c1
5.71

Report value only: pIC50, UniProt:A0A024AXB9, Cn1nc(C2CC2)cc1C(=O)Nc1cc(CCCN)ccn1
< 4.60

Report value only: pIC50, UniProt:A0A024AXB9, Cc1noc(C)c1-c1ccc([C@@H](NC(=O)OCc2ccccc2)C(=O)Nc2cccc(CN)c2)cc1
4.24

Report value only: pIC50, UniProt:A0A024AXB9, NCc1cccc(CNC(=O)[C@H](NC(=O)OCc2ccccc2)c2ccc(OCc3ccccc3)cc2)c1
4.88

Report value only: pIC50, UniProt:A0A024AXB9, CCn1c(=O)c(N2C[C@]3(CO)C[C@H]2CO3)nc2ccccc21
< 4.00

Report value only: pIC50, UniProt:A0A024AXB9, NCc1cccc(NC(=O)[C@H](NC(=O)OCc2ccccc2)c2cccc(OCCn3cccn3)c2)c1
< 4.00

Report value only: pIC50, UniProt:A0A024AXB9, CC(=O)N[C@@H](C(=O)Nc1cccc(CN)c1)c1ccc(OCc2ccccc2)cc1
< 4.00

Report value only: pIC50, UniProt:A0A024AXB9, O=C(Nc1cccc(-n2nn[nH]c2=O)c1)c1cc(Cl)cc(N2CCCC2=O)c1
< 4.00

Report value only: pIC50, UniProt:A0A024AXB9, NCc1cccc(NC(=O)c2cc(Cl)ccc2NS(=O)(=O)c2ccc(Oc3ccccc3Cl)cc2)c1
< 4.00

Report value only: pIC50, UniProt:A0A024AXB9, Cc1ccc2cccc(NC(=O)C3CCN(c4ccc(C=O)cc4)CC3)c2n1
4.52

Report value only: pIC50, UniProt:A0A024AXB9, CC(C)N1CCC([C@H](NC(=O)OCc2ccccc2)C(=O)Nc2cccc(CN)c2)CC1
< 4.00

Report value only: pIC50, UniProt:A0A024AXB9, CCn1ccnc(N2CC[C@H](c3ccc(OC)nc3)C2)c1=O
< 4.00

Report value only: pIC50, UniProt:A0A024AXB9, NCc1cccc(NC(=O)[C@H](NC(=O)OCc2ccccc2)C2CCN(C(=O)[C@H]3C[C@H](O)C3)CC2)c1
< 4.00

Report value only: pIC50, UniProt:A0A024AXB9, c1cncc(-c2cccc(NCc3c[nH]c4ccccc34)c2)c1
< 4.00

Report value only: pIC50, UniProt:A0A024AXB9, O=C(Nc1ccc2c(c1)CNC2)c1cc(Cl)cc2c1cnn2C[C@H]1CCCO1
6.87

Report value only: pIC50, UniProt:A0A024AXB9, O=C(Nc1cc(Cl)cc(C(=O)NC[C@H]2CNC3(CC3)CO2)c1)OCc1ccccc1
< 4.00

Report value only: pIC50, UniProt:A0A024AXB9, O=C(Nc1cc(Cl)cc(C(=O)NC[C@@H]2CNCCC2(F)F)c1)OCc1ccccc1
< 4.00

Report value only: pIC50, UniProt:A0A024AXB9, NCc1cccc(NC(=O)[C@@H](NS(=O)(=O)C[C@H]2CCCCO2)c2ccc(OCc3ccccc3)cc2)c1
< 4.00

Report value only: pIC50, UniProt:A0A024AXB9, CC(C)CNC(=O)c1cc(Cl)c(F)cc1NS(=O)(=O)c1ccc(Oc2ccccc2Cl)cc1
5.11

Report value only: pIC50, UniProt:A0A024AXB9, O=C(O)c1c(F)cc(F)cc1NS(=O)(=O)c1ccc(Oc2ccccc2Cl)cc1
< 4.00

Report value only: pIC50, UniProt:A0A024AXB9, O=C(Nc1ccccc1)Oc1ccccc1 [PHENYL PHENYLCARBAMATE]
< 4.00

Report value only: pIC50, UniProt:A0A024AXB9, O=C(NCC1CC1)c1cc(Cl)ccc1NS(=O)(=O)c1ccc(Oc2ccccc2Cl)cc1
4.12

Report value only: pIC50, UniProt:A0A024AXB9, NCc1cccc(NC(=O)c2cc(Cl)cc(Cl)c2)c1
5.26

Report value only: pIC50, UniProt:A0A024AXB9, Cn1nc(CNc2cc(-c3cccnc3)ccn2)cc1C1CC1
< 4.60

Report value only: pIC50, UniProt:A0A024AXB9, COc1ccc(S(=O)(=O)n2nc(OC(=O)c3ccccc3)cc2N)cc1
5.93

Report value only: pIC50, UniProt:A0A024AXB9, O=C(Nc1cc(Cl)cc(-c2ccc3cc(C(=O)O)[nH]c3c2)c1)OCc1ccccc1
4.93

Report value only: pIC50, UniProt:A0A024AXB9, C[C@@H]1C[C@H](NS(=O)(=O)c2ccc(Cl)cc2C(=O)O)C[C@H](C)N1Cc1ccccc1
< 4.00

Report value only: pIC50, UniProt:A0A024AXB9, O=C(O)c1cc(Cl)ccc1NS(=O)(=O)c1ccc(-c2ccccc2Cl)cc1
4.75

----------
Give pIC50 for every item shown.
Molecular target: Nonstructural protein 3 (Zika virus, UniProt A0A024AXB9)
Sequence (A0A024AXB9 whole entry): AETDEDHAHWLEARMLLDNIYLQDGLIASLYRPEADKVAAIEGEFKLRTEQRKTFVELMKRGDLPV
Experiment: Functional biochemical assay to identify treatments for viral infectious disease that targets Zika NS2B-NS3 protease. Utilizing a direct enzyme activity measurement method, reading the fluorescence intensity is used to characterize the relative potency of inhibitors as IC50.
Set-up: species or system PRVABC59
Would you please state pIC50, meaning minus log10 of the concentration in mol/L, as a bare number?

Return value of pIC50 for input c1cnc(C2CCN(Cc3c[nH]c4ccccc34)CC2)nc1 , no commentary.
4.30

Return value of pIC50 for input N#Cc1csc2cc(C(=O)Nc3ccc4c(c3)CNC4)ccc12 , no commentary.
6.33

Return value of pIC50 for input O=C(Nc1ccc2c(c1)CNC2)c1cccc2ncccc12 , no commentary.
5.47

Return value of pIC50 for input Cc1c(C(=O)Nc2ccc(CCN)cc2)cc(C2CC2)n1C , no commentary.
4.03

Return value of pIC50 for input c1ccc2c(CN3CCC(c4c[nH]c5cccnc45)CC3)n[nH]c2c1 , no commentary.
4.37

Return value of pIC50 for input Cn1ccc(-c2cc(F)cc(C(=O)Nc3ccc4c(c3)CNC4)c2)cc1=O , no commentary.
6.98
